# Tgt: T1, human SIRPα v2-Fc (SIRPα2 extracellular domain fused to human IGHG1_Fc) (human, UniProt P78324 31-373; P0DOX5 223-449 = IgG part)
# T1 construct: as m38; also called V2 (e.g. SIRPα2); SIRPα V2:ESE
# Assay Details: BLI Octet, antigen-Fc on biosensor;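 also: antigen captured on the biosensor tip and then immersed in solutions of the test antibodies, which act as the analyte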
The following binders are shown together with reported kon values.
Parameter Measured: kon (M⁻¹ s⁻¹)

INSERT INTO results (binder, quantitative_readout) VALUES
  ('SIRPAB-13 (antibody, human IgG1, kappa, V domains shown) VH: QVQLVQSGAEVKKPGASVKVSCKASGYTFHGYGISWVRQAPGQGLEWMGWISAYSGETNYAQKLQGRVTMTTDTSTSTAYMELRSLRSDDTAVYYCAREAGSSWYDFDLWGRGTLVTVSS VL: DIQMTQSPSSVSASVGDRVTITCRASQGISSWLAWYQQKPGKAPKLLIYAASNLQSGVPSRFSGSGSGTDFTLTISSLQPEDFATYYCQQGASFPITFGGGTKVEIKR', '1e+06'),
  ('SIRPAB-9 (antibody, human IgG1, kappa, V domains shown) VH: QVQLVQSGAEVKKPGASVKVSCKASGYTFGGYGISWVRQAPGQGLEWMGWISAYGGETNYAQKLQGRVTMTTDTSTSTAYMELRSLRSDDTAVYYCAREAGSSWYDFDLWGRGTLVTVSS VL: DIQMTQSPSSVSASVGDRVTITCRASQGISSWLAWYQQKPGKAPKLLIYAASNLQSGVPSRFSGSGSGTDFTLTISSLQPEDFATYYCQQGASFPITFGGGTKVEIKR', 810000),
  ('SIRPAB-7 (antibody, human IgG1, kappa, V domains shown) VH: QVQLQESGPGLVKPSQTLSLTCTVSGGSISSGEYYWEWIRQHPGKGLEWIGYIYSSGFTYYNPSLKSRVTISVDTSKNQFSLKLSSVTAADTAVYYCAREGLDGSYGSSAWGQGTLVTVSS VL: DIQLTQSPSSLSASVGDRVTITCQASQDISNYLNWYQQKPGKAPKLLIYDASNLETGVPSRFSGSGSGTDFTFTISSLQPEDIATYYCQQFAYLPYTFGGGTKVEIKR', 730000),
  ('SIRPAB-10 (antibody, human IgG1, kappa, V domains shown) VH: QVQLVQSGAEVKKPGASVKVSCKASGYTFTGYPISWVRQAPGQGLEWMGWIYAYGGNTNYAQKLQGRVTMTTDTSTSTAYMELRSLRSDDTAVYYCAREAGSSWYDFDLWGRGTLVTVSS VL: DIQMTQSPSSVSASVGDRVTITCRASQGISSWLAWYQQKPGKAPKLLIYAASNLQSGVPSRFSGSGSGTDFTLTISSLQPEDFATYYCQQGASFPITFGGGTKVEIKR', '1.25e+06');
